Parameter AUC: see the listing below.
assay: Oral integrated area under the concentration vs time curve, for compound in rat plasma; assay type: ADME, organism-based
Where a SMILES comes first, the peptide text is derived from it. The star is where a group is joined. CF3 = FC(F)(F)*; Moc = COC(=O)*
Could you kindly put the unit after your number?

# molecule, AUC
data = [
    ("COc1ccc(C(=O)N[C@H](C(=O)N2CCC[C@H]2C(=O)N[C@H](C(=O)C(F)(F)F)C(C)C)C(C)C)cc1 (stereo in doubt; 1k)", "1400 ng·h/mL"),
]

Query molecule follows.
## Task Give its AUC value. Item: COC(=O)N[C@H](C(=O)N1CCC[C@H]1C(=O)N[C@H](C(=O)C(F)(F)F)C(C)C)C(C)C (Moc-Val-Pro-Val-CF3)
## Result 5480 ng·h/mL

* * *

assay: Bioavailability in rat; format: ADME, organism-based; conditions: in vivo
Where a SMILES comes first, the peptide text is derived from it. The star is where a group is joined. CF3 = FC(F)(F)*; Moc = COC(=O)*
valueKind: bioavailability (%)
Provide the reading as a plain figure in %.

# compound, bioavailability / %
measured = [
    ("COC(=O)N[C@H](C(=O)N1CCC[C@H]1C(=O)N[C@H](C(=O)C(F)(F)F)C(C)C)C(C)C (Moc-Val-Pro-Val-CF3)", 84),
]

## Task Value lookup for bioavailability; key = COc1ccc(C(=O)N[C@H](C(=O)N2CCC[C@H]2C(=O)N[C@H](C(=O)C(F)(F)F)C(C)C)C(C)C)cc1 (stereo in doubt; 1k)
## Result 82

* * *

experiment: Half-life of compound in plasma of hamster; type: ADME, organism-based; conditions: cricetinae
Where a SMILES comes first, the peptide text is derived from it. The star is where a group is joined. CF3 = FC(F)(F)*; Moc = COC(=O)*
valueKind: half-life (h)
Respond with the bare value in h.

# molecule, half-life / h
rows = [
    ("COc1ccc(C(=O)N[C@H](C(=O)N2CCC[C@H]2C(=O)N[C@H](C(=O)C(F)(F)F)C(C)C)C(C)C)cc1 (stereo in doubt; 1k)", 1.2),
]

## Task Given the molecule COC(=O)N[C@H](C(=O)N1CCC[C@H]1C(=O)N[C@H](C(=O)C(F)(F)F)C(C)C)C(C)C (Moc-Val-Pro-Val-CF3) , what is its reported half-life?
## Result 2

* * *

test: Oral integrated area under the concentration vs time curve, for compound in hamster plasma; type: ADME, organism-based; conditions: cricetinae
Where a SMILES comes first, the peptide text is derived from it. The star is where a group is joined. CF3 = FC(F)(F)*; Moc = COC(=O)*
Documented AUC across a set of molecules
Reply numerically in ng·h/mL, unit not repeated.

# molecule, AUC, ng·h/mL
records = [
    ("COC(=O)N[C@H](C(=O)N1CCC[C@H]1C(=O)N[C@H](C(=O)C(F)(F)F)C(C)C)C(C)C (Moc-Val-Pro-Val-CF3)", 2160),
]

## Task Fill blank: measured AUC of the molecule COc1ccc(C(=O)N[C@H](C(=O)N2CCC[C@H]2C(=O)N[C@H](C(=O)C(F)(F)F)C(C)C)C(C)C)cc1 (stereo in doubt; 1k) is ____.
## Result 355

* * *

experiment: Maximum concentration of the unchanged compound in rat plasma, recorded in the period 0-6 hr post dose.; format: ADME, organism-based
Where a SMILES comes first, the peptide text is derived from it. The star is where a group is joined. CF3 = FC(F)(F)*; Moc = COC(=O)*
valueKind: Cmax (ng/mL)
Express it in ng/mL; write the number only.

# molecule, observedValue
measured = [
    ("COc1ccc(C(=O)N[C@H](C(=O)N2CCC[C@H]2C(=O)N[C@H](C(=O)C(F)(F)F)C(C)C)C(C)C)cc1 (stereo in doubt; 1k)", 972),
]

# next molecule below
## Task Value lookup for Cmax; key = COC(=O)N[C@H](C(=O)N1CCC[C@H]1C(=O)N[C@H](C(=O)C(F)(F)F)C(C)C)C(C)C (Moc-Val-Pro-Val-CF3)
## Result 3690

* * *

experiment: Bioavailability in hamster; type: ADME, organism-based, Cricetulus griseus; conditions: chinese hamster, in vivo
Where a SMILES comes first, the peptide text is derived from it. The star is where a group is joined. CF3 = FC(F)(F)*; Moc = COC(=O)*
valueKind: bioavailability (%)
Quick reminder: number only, in %, skip the unit.

# compound, observedValue
measured = [
    ("COC(=O)N[C@H](C(=O)N1CCC[C@H]1C(=O)N[C@H](C(=O)C(F)(F)F)C(C)C)C(C)C (Moc-Val-Pro-Val-CF3)", 75),
]

Now let's try a different one.
## Task Look at this compound and give its reported bioavailability. COc1ccc(C(=O)N[C@H](C(=O)N2CCC[C@H]2C(=O)N[C@H](C(=O)C(F)(F)F)C(C)C)C(C)C)cc1 (stereo in doubt; 1k)
## Result 26
